Assay: PK/PD duration of effect study, single oral gavage dose: administered compound level in liver
Type: in vivo, C57BL/6 mice
Conditions: C57BL/6, mouse, 0.75 hr after 500 mg/kg oral gavage, pre-dose BQL, read-out: transcyclohexyl NaR dimer concentration
Method: Transcyclohexyl nicotinic acid riboside (NaR) dimer was administered by oral gavage at a dose of 500 mg/kg in an Ethanol/PBS, pH 7.4/PEG400 (10/30/60) vehicle. The dosing volume was 5 ml/kg at a solution concentration of 100 mg/ml. […] Samples were thawed, homogenized, extracted and analyzed by LC-MS on the same day. […] Calibration standards for quantifying administered compound were prepared using transcyclohexyl NaR dimer in mouse liver or skeletal muscle homogenates. […]
Property label: concentration at 0.75 h (ng/g)
Expressed in ng/g, but write only the number.

# get_value(readout='concentration at 0.75 h', item= CC(=O)OC[C@H]1O[C@@H]([n+]2cccc(C(=O)O[C@H]3CC[C@H](OC(=O)c4ccc[n+]([C@@H]5O[C@H](COC(C)=O)[C@@H](OC(C)=O)[C@H]5OC(C)=O)c4)CC3)c2)[C@H](OC(C)=O)[C@@H]1OC(C)=O [transcyclohexyl NaR dimer] ) 327
